- study-target: T1, exemplary TAT frataxin fusion molecule (HIV-1, UniProt Q16595 1-210)
- T1 construct: in the bridging assays biotinylated and sulfotagged forms were used; also called TAT-FXN fusion molecule; TAT FXN fusion molecule
- T1 sequence: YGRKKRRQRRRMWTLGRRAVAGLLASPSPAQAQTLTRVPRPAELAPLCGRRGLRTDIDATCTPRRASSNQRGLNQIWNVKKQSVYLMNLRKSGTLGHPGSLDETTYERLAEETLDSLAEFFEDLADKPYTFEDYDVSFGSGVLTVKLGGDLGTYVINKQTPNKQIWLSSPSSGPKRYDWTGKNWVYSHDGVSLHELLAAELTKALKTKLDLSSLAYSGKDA
- experimental-protocol: PK sandwich ELISA in human plasma, antibody as capture, HRP anti-frataxin mAb detection
measured-endpoint: S/N at plasma conc. 12.8 ng/mL
Returns: the value as a bare number; no unit string appended.

## Task Endpoint output: S/N at plasma conc. 12.8 ng/mL of antibody 12-10 (antibody, V domains shown, Rabbit monoclonal) VH: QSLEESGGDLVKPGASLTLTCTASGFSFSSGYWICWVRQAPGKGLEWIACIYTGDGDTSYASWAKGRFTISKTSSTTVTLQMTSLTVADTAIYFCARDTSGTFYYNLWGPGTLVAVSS VL: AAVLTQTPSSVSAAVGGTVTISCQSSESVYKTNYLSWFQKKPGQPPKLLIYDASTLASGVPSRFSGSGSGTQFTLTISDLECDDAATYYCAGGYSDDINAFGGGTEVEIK . Value?
## Result 16.7

## Task Field entry: antibody 12-3 (antibody, V domains shown, Rabbit monoclonal) VH: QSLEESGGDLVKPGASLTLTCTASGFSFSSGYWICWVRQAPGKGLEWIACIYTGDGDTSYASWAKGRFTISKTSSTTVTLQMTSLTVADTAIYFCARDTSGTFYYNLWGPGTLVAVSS VL: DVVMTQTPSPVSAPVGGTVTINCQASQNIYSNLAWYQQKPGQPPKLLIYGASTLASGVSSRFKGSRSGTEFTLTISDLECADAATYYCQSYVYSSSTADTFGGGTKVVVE
## Result 17.8
